Target: RAC-gamma serine/threonine-protein kinase (Homo sapiens) (UniProt Q9Y243)
Sequence (Q9Y243 whole entry): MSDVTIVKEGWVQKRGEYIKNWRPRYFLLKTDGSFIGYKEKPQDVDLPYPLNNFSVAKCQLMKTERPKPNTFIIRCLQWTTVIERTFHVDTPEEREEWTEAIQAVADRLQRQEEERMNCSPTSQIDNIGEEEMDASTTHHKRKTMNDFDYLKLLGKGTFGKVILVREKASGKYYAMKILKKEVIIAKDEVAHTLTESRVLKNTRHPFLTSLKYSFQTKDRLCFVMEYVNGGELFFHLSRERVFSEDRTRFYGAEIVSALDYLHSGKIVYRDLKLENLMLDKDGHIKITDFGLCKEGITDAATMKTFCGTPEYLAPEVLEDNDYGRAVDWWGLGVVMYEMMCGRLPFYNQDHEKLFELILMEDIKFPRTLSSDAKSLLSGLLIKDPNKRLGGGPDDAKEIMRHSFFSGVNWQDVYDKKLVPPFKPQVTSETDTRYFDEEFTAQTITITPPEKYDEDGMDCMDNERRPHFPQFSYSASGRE
Details: at 1 µM
Description: GSK_PKIS: AKT3 mean inhibition at 1 uM [Nanosyn]
inhibition: recorded values

[
  {
    "Compound": "CS(=O)(=O)CCNCc1nc(-c2ccc3ncnc(Nc4ccc(F)c(Cl)c4)c3c2)cs1",
    "Units": "%",
    "inhibition": -0.89
  },
  {
    "Compound": "CCn1c(-c2nonc2N)nc2c(C#CC(C)(C)O)nc(CN3CCCC3)cc21",
    "Units": "%",
    "inhibition": 78.7
  },
  {
    "Compound": "Cc1cccc(-c2n[nH]cc2-c2ccc3ncccc3n2)n1",
    "Units": "%",
    "inhibition": 2.13
  },
  {
    "Compound": "CC1=C(C(=O)Nc2ccc3[nH]ncc3c2)C(c2ccc3ccccc3c2)CC(=O)N1 (stereo unspecified)",
    "Units": "%",
    "inhibition": 3.76
  },
  {
    "Compound": "Cn1cc(C=C2C(=O)Nc3cccnc32)c2ccccc21",
    "Units": "%",
    "inhibition": 0.99
  },
  {
    "Compound": "COC(=O)Nc1nc2cc(Oc3cccc(NC(=O)Nc4cc(C(F)(F)F)ccc4F)c3)ccc2[nH]1",
    "Units": "%",
    "inhibition": 1.83
  }
]

###

Quick list: inhibition per entry.
Target: Casein kinase I isoform gamma-2 (Homo sapiens);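 further: values are mean inhibition figures reported as part of the GSK PKIS dataset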
Details: at 0.1 µM

[
  {
    "Compound": "CCn1c(-c2nonc2N)nc2ccncc21",
    "Experimental system": "Casein kinase I isoform gamma-2 (Homo sapiens)",
    "inhibition (%)": 0.24
  },
  {
    "Compound": "CC1=C(C(=O)Nc2ccc3[nH]ncc3c2)C(c2ccc(F)cc2)NC(=O)N1 (stereo not given)",
    "Experimental system": "Casein kinase I isoform gamma-2 (Homo sapiens)",
    "inhibition (%)": 1.41
  },
  {
    "Compound": "COc1cccc(-n2ncc3c(N/N=C/c4cccc(F)c4)ncnc32)c1",
    "Experimental system": "Casein kinase I isoform gamma-2 (Homo sapiens)",
    "inhibition (%)": -1.9
  },
  {
    "Compound": "NC(=O)c1cccc(Nc2nccc(Nc3cccc4[nH]ncc34)n2)c1",
    "Experimental system": "Casein kinase I isoform gamma-2 (Homo sapiens)",
    "inhibition (%)": -1.57
  },
  {
    "Compound": "COc1ccc(-c2nn3ncccc3c2-c2ccnc(Nc3ccc(Cl)c(C(F)(F)F)c3)n2)cc1",
    "Experimental system": "Casein kinase I isoform gamma-2 (Homo sapiens)",
    "inhibition (%)": 1.23
  }
]

###

The entries below are paired with their reported inhibition.
Target: Leukocyte tyrosine kinase receptor (Homo sapiens) (UniProt P29376)
Sequence (P29376 whole entry): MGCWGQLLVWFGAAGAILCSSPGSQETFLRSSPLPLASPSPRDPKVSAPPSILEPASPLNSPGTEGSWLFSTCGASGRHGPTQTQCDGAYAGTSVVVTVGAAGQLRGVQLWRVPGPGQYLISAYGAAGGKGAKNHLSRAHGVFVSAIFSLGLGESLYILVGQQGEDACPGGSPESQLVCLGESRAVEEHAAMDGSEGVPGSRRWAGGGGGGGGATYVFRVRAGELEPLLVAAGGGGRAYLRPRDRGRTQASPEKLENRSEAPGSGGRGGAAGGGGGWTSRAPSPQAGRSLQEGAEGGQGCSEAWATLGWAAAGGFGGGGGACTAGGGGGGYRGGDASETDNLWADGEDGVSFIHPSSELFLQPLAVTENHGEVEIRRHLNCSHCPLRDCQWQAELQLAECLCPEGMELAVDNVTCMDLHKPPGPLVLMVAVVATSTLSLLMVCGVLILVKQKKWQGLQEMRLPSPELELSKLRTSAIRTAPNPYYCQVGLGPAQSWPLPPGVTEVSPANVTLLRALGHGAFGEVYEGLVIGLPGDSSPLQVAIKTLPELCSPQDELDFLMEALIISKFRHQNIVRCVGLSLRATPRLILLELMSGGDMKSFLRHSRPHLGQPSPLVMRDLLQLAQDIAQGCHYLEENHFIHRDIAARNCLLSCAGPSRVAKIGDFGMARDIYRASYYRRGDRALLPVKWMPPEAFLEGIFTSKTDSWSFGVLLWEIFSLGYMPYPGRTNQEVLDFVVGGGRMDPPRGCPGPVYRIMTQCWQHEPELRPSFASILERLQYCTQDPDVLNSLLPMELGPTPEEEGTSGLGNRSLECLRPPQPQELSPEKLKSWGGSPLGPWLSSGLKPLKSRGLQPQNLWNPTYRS
Settings: at 0.1 µM
Description: GSK_PKIS: LTK mean inhibition at 0.1 uM [Nanosyn]
Value kind: inhibition (%)

[
  {
    "Test smiles": "CCn1c(-c2nonc2N)nc2c(C#CC(C)(C)O)nc(OC[C@@H](N)c3ccccc3)cc21",
    "Units": "%",
    "Reported value": 0.55
  },
  {
    "Test smiles": "Cc1ccc(NC(=O)c2ccnc(N3CCCC3)c2)cc1-c1ccc(C(=O)NCC2CC2)cc1",
    "Units": "%",
    "Reported value": 2.27
  },
  {
    "Test smiles": "Cn1cc(C=C2C(=O)Nc3cccnc32)c2ccccc21",
    "Units": "%",
    "Reported value": 2.72
  },
  {
    "Test smiles": "CS(=O)(=O)CCNCc1ccc(-c2ccc3ncnc(Nc4ccc(OCc5cccc(F)c5)c(C(F)(F)F)c4)c3c2)o1",
    "Units": "%",
    "Reported value": 3.59
  },
  {
    "Test smiles": "CCCN1CCC=C(c2ccc(Nc3nc(Nc4ccccc4C(N)=O)c4cc[nH]c4n3)c(C)c2)C1",
    "Units": "%",
    "Reported value": 79.4
  },
  {
    "Test smiles": "COc1ccc(-c2nn3ncccc3c2-c2ccnc(Nc3ccc(Cl)c(C(F)(F)F)c3)n2)cc1",
    "Units": "%",
    "Reported value": 2.25
  },
  {
    "Test smiles": "COc1cc2ncn(-c3cc(OCc4ccccc4C(F)(F)F)c(C(N)=O)s3)c2cc1OC",
    "Units": "%",
    "Reported value": 2.36
  },
  {
    "Test smiles": "COc1cc(C)c(NC(=O)CN(C)C)cc1Nc1nc(Nc2cccc(F)c2C(N)=O)c2cc[nH]c2n1",
    "Units": "%",
    "Reported value": 92.9
  },
  {
    "Test smiles": "COc1cc2ncn(-c3cc(O[C@H](C)c4ccccc4Cl)c(C(N)=O)s3)c2cc1OC",
    "Units": "%",
    "Reported value": 3.77
  },
  {
    "Test smiles": "COc1cc(C=NNc2ncnc3c2cnn3-c2ccccc2)ccc1O",
    "Units": "%",
    "Reported value": 2.19
  },
  {
    "Test smiles": "CC(=O)Nc1cccc(C#Cc2cncnc2Nc2ccc(OCc3cccc(F)c3)c(Cl)c2)n1",
    "Units": "%",
    "Reported value": -0.61
  },
  {
    "Test smiles": "NCc1ccc(-c2nc(-c3ccc(Cl)c(O)c3)c(-c3ccncc3)[nH]2)cc1",
    "Units": "%",
    "Reported value": 1
  },
  {
    "Test smiles": "CN1CCC(C(=O)Nc2n[nH]c3nnc(-c4ccccc4)cc23)CC1",
    "Units": "%",
    "Reported value": 3.64
  },
  {
    "Test smiles": "CNC(=O)c1cncc(/C=C/c2c(Cl)cccc2Cl)c1",
    "Units": "%",
    "Reported value": 3.47
  },
  {
    "Test smiles": "NS(=O)(=O)c1ccc(N/N=C2\\C(=O)Nc3ccc(C(=O)NCCc4c[nH]cn4)cc32)cc1",
    "Units": "%",
    "Reported value": 5.2
  }
]

###

Readings of inhibition for the listed compounds
Molecular target: BDNF/NT-3 growth factors receptor (Homo sapiens) (UniProt Q16620);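 further: each value is a mean percent inhibition of TrkB kinase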
Sequence (Q16620 32-822 limits assumed): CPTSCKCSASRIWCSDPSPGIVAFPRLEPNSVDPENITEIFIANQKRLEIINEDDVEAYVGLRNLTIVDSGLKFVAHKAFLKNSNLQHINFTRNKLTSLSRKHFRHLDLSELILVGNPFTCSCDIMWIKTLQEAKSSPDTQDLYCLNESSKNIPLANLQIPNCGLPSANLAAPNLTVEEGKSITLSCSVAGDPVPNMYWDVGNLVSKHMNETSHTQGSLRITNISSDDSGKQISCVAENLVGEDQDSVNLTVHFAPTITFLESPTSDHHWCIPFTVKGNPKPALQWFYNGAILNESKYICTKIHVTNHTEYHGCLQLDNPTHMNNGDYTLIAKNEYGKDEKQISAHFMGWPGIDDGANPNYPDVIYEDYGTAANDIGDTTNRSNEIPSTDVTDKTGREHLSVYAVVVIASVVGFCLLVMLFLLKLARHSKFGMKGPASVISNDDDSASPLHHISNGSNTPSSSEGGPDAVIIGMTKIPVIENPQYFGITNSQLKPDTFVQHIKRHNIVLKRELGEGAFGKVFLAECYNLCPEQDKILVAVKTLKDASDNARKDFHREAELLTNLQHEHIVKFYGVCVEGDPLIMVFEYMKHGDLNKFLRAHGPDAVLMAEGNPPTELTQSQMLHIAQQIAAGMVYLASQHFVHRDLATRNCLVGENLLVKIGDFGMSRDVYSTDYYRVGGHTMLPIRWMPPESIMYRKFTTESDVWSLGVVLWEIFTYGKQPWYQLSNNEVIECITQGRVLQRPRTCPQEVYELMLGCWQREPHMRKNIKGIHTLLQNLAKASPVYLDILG
Details: at 0.1 µM

[
  {
    "Compound": "CS(=O)(=O)CCNCc1nc(-c2ccc3ncnc(Nc4ccc(F)c(Cl)c4)c3c2)cs1",
    "inhibition (%)": 0.48
  },
  {
    "Compound": "CC(C)=Cc1cccc2c1/C(=N/Nc1ccc(S(N)(=O)=O)cc1)C(=O)N2",
    "inhibition (%)": 22.4
  },
  {
    "Compound": "COc1cc2c(cc1Nc1nc(N3CCc4ccccc43)c3cc[nH]c3n1)N(C(=O)CN(C)C)CC2",
    "inhibition (%)": -0.87
  },
  {
    "Compound": "CC1=C(C(=O)Nc2ccc3[nH]ncc3c2)C(c2ccc(F)cc2)NC(=O)N1 (centres undefined)",
    "inhibition (%)": 0.91
  }
]

###

Molecular target: Mitogen-activated protein kinase 11 (Homo sapiens) (UniProt Q15759);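 further: values are mean percent inhibition of p38beta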
Sequence (Q15759 whole entry): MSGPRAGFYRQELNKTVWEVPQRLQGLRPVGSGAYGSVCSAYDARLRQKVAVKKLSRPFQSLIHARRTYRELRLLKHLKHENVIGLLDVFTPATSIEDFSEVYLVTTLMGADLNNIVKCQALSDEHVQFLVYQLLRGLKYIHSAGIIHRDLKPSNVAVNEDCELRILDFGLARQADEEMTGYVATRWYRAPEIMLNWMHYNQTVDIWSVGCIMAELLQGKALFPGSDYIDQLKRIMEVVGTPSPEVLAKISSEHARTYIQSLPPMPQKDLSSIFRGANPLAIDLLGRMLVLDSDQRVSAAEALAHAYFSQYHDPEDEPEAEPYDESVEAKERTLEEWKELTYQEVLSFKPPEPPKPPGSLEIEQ
Conditions: at 1 µM
Value kind: inhibition (%)

[
  {
    "Molecule": "CCn1c(-c2nonc2N)nc2cncc(C(=O)N3CCNCC3)c21",
    "Units": "%",
    "Reported value": 5.3
  },
  {
    "Molecule": "CC1=C(C(=O)Nc2ccc3[nH]ncc3c2)C(c2ccc(Cl)c(Cl)c2)CC(=O)N1 (centres undefined)",
    "Units": "%",
    "Reported value": 0.24
  },
  {
    "Molecule": "NCc1ccc(-c2nc(-c3ccc(Cl)c(O)c3)c(-c3ccncc3)[nH]2)cc1",
    "Units": "%",
    "Reported value": 54
  },
  {
    "Molecule": "COc1cc2c(cc1Nc1nc(N3CCc4ccccc43)c3cc[nH]c3n1)N(C(=O)CN(C)C)CC2",
    "Units": "%",
    "Reported value": 1.85
  }
]

###

Measured inhibition values are reported for all entries that follow.
Molecular target: Rho-associated protein kinase 1 (Homo sapiens);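 further: values are mean percent inhibition of ROCK1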
Conditions: at 0.1 µM
Value kind: inhibition

[
  {
    "Test smiles": "O=C1NC(=O)C(c2ccc(Cl)cc2)=C1Nc1ccc(Cl)c(C(=O)O)c1",
    "Reported value": "-0.15%"
  },
  {
    "Test smiles": "Cc1ccc(NC(=O)c2ccnc(N3CCCC3)c2)cc1-c1ccc(C(=O)NCC2CC2)cc1",
    "Reported value": "10%"
  },
  {
    "Test smiles": "CCn1c(-c2nonc2N)nc2c(C#CC(C)(C)O)nc(OC[C@@H](N)c3ccccc3)cc21",
    "Reported value": "5.46%"
  }
]

###

# inhibition annotations
Molecular target: cAMP-dependent protein kinase catalytic subunit alpha (Homo sapiens) (UniProt P17612);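 further: mean percent inhibition of PKA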
Conditions: at 1 µM

[
  {
    "Compound": "Cc1cc(O)cc(C)c1/C=C/c1cncc(-c2nn[nH]n2)c1",
    "Units": "%",
    "inhibition": -1.78
  },
  {
    "Compound": "CCn1c(-c2nonc2N)nc2c(C#CC(C)(C)O)nc(OC[C@@H](N)c3ccccc3)cc21",
    "Units": "%",
    "inhibition": 79.3
  },
  {
    "Compound": "CCn1c(-c2nonc2N)nc2cncc(C(=O)N3CCNCC3)c21",
    "Units": "%",
    "inhibition": 8.74
  },
  {
    "Compound": "COc1ccc(-c2nn3ncccc3c2-c2ccnc(Nc3ccc(Cl)c(C(F)(F)F)c3)n2)cc1",
    "Units": "%",
    "inhibition": 1.26
  },
  {
    "Compound": "CC1=C(C(=O)Nc2ccc3[nH]ncc3c2)C(c2ccc3ccccc3c2)CC(=O)N1 (stereo not drawn)",
    "Units": "%",
    "inhibition": 45.9
  },
  {
    "Compound": "N#Cc1c(NC(=O)c2cccc3ccccc23)sc2c1CCCC2",
    "Units": "%",
    "inhibition": 1.98
  },
  {
    "Compound": "COc1ccc(-c2coc3ncnc(N)c23)cc1",
    "Units": "%",
    "inhibition": 1.74
  },
  {
    "Compound": "CCN1CCC(CC(=O)Nc2n[nH]c3nc(-c4cccs4)c(Br)cc23)CC1",
    "Units": "%",
    "inhibition": 1.75
  },
  {
    "Compound": "COC(=O)Nc1nc2cc(Oc3ccc(NC(=O)Nc4cccc(C(=O)O)c4)cc3)ccc2[nH]1",
    "Units": "%",
    "inhibition": 0.18
  },
  {
    "Compound": "CCCN1CCC(Oc2cc(Nc3nc(Nc4cccc(F)c4C(N)=O)c4cc[nH]c4n3)c(OC)cc2Cl)CC1",
    "Units": "%",
    "inhibition": 9.18
  },
  {
    "Compound": "CS(=O)(=O)CCNCc1ccc(-c2ccc3ncnc(Nc4ccc(OCc5cccc(F)c5)c(C(F)(F)F)c4)c3c2)o1",
    "Units": "%",
    "inhibition": 2.53
  },
  {
    "Compound": "COc1cc(C=NNc2ncnc3c2cnn3-c2ccccc2)ccc1O",
    "Units": "%",
    "inhibition": 1.88
  },
  {
    "Compound": "COC(=O)Nc1nc2cc(Oc3cccc(NC(=O)Nc4cc(C(F)(F)F)ccc4F)c3)ccc2[nH]1",
    "Units": "%",
    "inhibition": 4.75
  }
]
